B1: ZNF8 (parent)
chain: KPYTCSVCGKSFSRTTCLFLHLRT

variants of: B1; assay: protein stability index of a GFP-peptide fusion (GPS, HEK-293T) (PSI 1-6); higher = more stable; details: c terminus: a fixed tail appended;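 note: lentivirally expressed fusions sorted by FACS into six bins by GFP to DsRed ratio, PSI derived from sequencing read proportions per bin multiplied by bin number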
Kindly return rule met if reported protein stability index is no lower than 2; return rule not met if it is lower.

[[record]]
variant_name = "S11C"
classification = "rule not met"

[[record]]
variant_name = "T15Y"
classification = "rule met"

[[record]]
variant_name = "S13E"
classification = "rule met"

[[record]]
variant_name = "L20T"
classification = "rule met"

[[record]]
variant_name = "T15A"
classification = "rule met"

[[record]]
variant_name = "G9N"
classification = "rule not met"

[[record]]
variant_name = "R23G"
classification = "rule not met"

[[record]]
variant_name = "S11H"
classification = "rule met"

[[record]]
variant_name = "C17P"
classification = "rule not met"

